Tested on: SK-MEL-5
method.notes: NCI tumour cell line growth inhibition, 48 h
The source made the active and inactive calls. Cut-off read from the data, not from the text of the source: active = GI50 up to about 1.1 µM and inactive = higher.
Overview of reported GI50 across a group of compounds:

> print(dat)
                                 smiles.str  parameter      recorded.result
1  N#Cc1c(C#N)c(SSc2c(C#N)c(C#N)c(N)n2-c2ccccc2)n(-c2ccccc2)c1N       GI50   6.22 µM (inactive)
2                           CSc1sc(=S)sc1SC       GI50  > 100 µM (inactive)
3     N#C/C(=C\c1ccc2ccccc2c1)C(=O)c1ccccc1       GI50   > 63 µM (inactive)
4  CC1(C)C=C(/C=N/Nc2ccc(Br)cc2)C(C#N)=C(O)C1(C#N)C#N       GI50  > 100 µM (inactive)

Recorded GI50 for `c1ccc(CNn2nnc3ccccc32)cc1` with SK-MEL-5, please?
> 100 µM (inactive)

Recorded GI50 for `CCOC(=O)c1nc2ccc(C(F)(F)F)cc2nc1Oc1ccc(C#N)cc1` with SK-MEL-5, please?
38.3 µM (inactive)

====

Overview of reported GI50 across a group of molecules:
System: SW-620
method.notes: NCI tumour cell line growth inhibition, 48 h
Activity calls are given as the source filed them. Cut-off read from the data, not from the text of the source: active = GI50 up to about 1.1 µM and inactive = higher.

> print(dat)
                     molecule  study.target      recorded.result
1  CC#CCOC(=O)c1ccccc1OC(C)=O        SW-620  > 100 µM (inactive)

GET /values?readout=GI50&item= COc1ccc(N2C(=O)C3c4[nH]c5cc(C)ccc5c4C4CCC(C(C)(C)C)CC4C3C2=O)cc1 (configuration not stated)
> 10 µM (inactive)

GET /values?readout=GI50&item= `O=C(O)c1cccc2cccc(-c3c4ccc(=O)cc-4oc4cc(O)ccc34)c12`
49.7 µM (inactive)

GET /values?readout=GI50&item= CC(=O)O[C@]12CCCC1C1(O)C(O)CCCC12 (some centres not stated)
> 100 µM (inactive)

GET /values?readout=GI50&item= CC[C@H](CC[C@@H](C)[C@H]1CC[C@H]2[C@@H]3CC=C4C[C@@H](O)CC[C@]4(C)[C@H]3CC[C@]12C)C(C)C [BETA-SITOSTEROL]
> 100 µM (inactive)

GET /values?readout=GI50&item= COC(=O)c1c2c(cc3c1CC1(Cc4cc5c(cc4C1=O)CCC5)C3)CCC2 (configuration not stated)
20.8 µM (inactive)

GET /values?readout=GI50&item= `CC1(C)S[C@H](CN)N[C@H]1C(=O)OC(c1ccccc1)c1ccccc1`
43.6 µM (inactive)

GET /values?readout=GI50&item= CC(C)(CN1CCCCC1)C(=O)CC(SCCN)c1ccc(Cl)cc1 (configuration not stated)
1.76 µM (inactive)

GET /values?readout=GI50&item= `N#C/C(C(=O)Nc1ccccc1)=C(/N)N1CCOCC1`
> 100 µM (inactive)

GET /values?readout=GI50&item= `CC(C)c1nc2cc(C(F)(F)F)ccc2[nH]c1=O`
> 100 µM (inactive)

GET /values?readout=GI50&item= CC(=O)c1ccc(NC(=O)C(=O)C(C(=O)c2ccc(Cl)c(Cl)c2)C2OC(=O)c3ccccc32)cc1 (configuration not stated)
21.2 µM (inactive)

GET /values?readout=GI50&item= `COc1ccc([C@@H]2CC(=O)NCCCNCCCCNCCCN2)cc1`
> 100 µM (inactive)

GET /values?readout=GI50&item= `COc1ccc2nc3ccc(OC)cc3c(SCc3ccc([N+](=O)[O-])cc3)c2c1`
> 100 µM (inactive)

GET /values?readout=GI50&item= `CCOC(=O)C1=CCOc2cc(N(C)C)ccc21`
> 100 µM (inactive)

GET /values?readout=GI50&item= `O=c1[nH]c2nc3ccccc3c(=O)n2/c1=C/c1ccc(O)cc1`
22.6 µM (inactive)

GET /values?readout=GI50&item= `S=C(S)NCCCn1ccnc1`
> 100 µM (inactive)

GET /values?readout=GI50&item= N=C(N)C1CN(CCCCCCCCCCN2CC(C(=N)N)C(O)=NC2=O)C(=O)N=C1O (configuration not stated)
> 10 µM (inactive)

GET /values?readout=GI50&item= `O=C(COc1ccccc1)N(C(=O)N1CCN(c2ccccc2)CC1)S(=O)(=O)c1ccccc1`
42.5 µM (inactive)

GET /values?readout=GI50&item= C[N+](C)(C)CC1CCCC(C[N+](C)(C)C)C1=NO (configuration not stated)
> 100 µM (inactive)

GET /values?readout=GI50&item= `CC(C)(/C=N/O)/[N+]([O-])=C/c1ccccc1`
> 100 µM (inactive)

GET /values?readout=GI50&item= `Nc1nccc(NCC2(CO)CCC2)n1`
> 100 µM (inactive)

GET /values?readout=GI50&item= `CCCNc1ncnc2c1cnn2C`
> 100 µM (inactive)

====

Overview of reported GI50 across a group of compounds:
Tested on: OVCAR-8
method.notes: NCI tumour cell line growth inhibition, 48 h
Calls of active or inactive are those of the source. No stated cut-off is given here; in the data, active = GI50 up to about 1.1 µM and inactive = higher.

> print(dat)
                                   compound      recorded.result
1  COC(=O)C(=O)C(C(=O)C=C(C)C)C(=O)C(=O)Nc1cc(C(F)(F)F)ccc1Cl (stereo unspecified)  > 100 µM (inactive)
2  COc1ccc2nc3ccc(OC)cc3c(SCc3ccc([N+](=O)[O-])cc3)c2c1   52.7 µM (inactive)
3  Cc1ccc(/N=N/c2c(-c3ccccc3)nn(C(=O)CC(=O)Nc3ccc(Cl)cc3)c2-c2ccccc2)cc1   32.1 µM (inactive)
4   CC(=O)c1cccc(NC(=O)C(=O)Nn2c(N)nnc2N)c1  > 100 µM (inactive)
5  O=C(O)CC1NCc2cc3ccccc3nc21 (stereo unspecified)  > 100 µM (inactive)

GET /values?readout=GI50&item= `O=[N+]([O-])c1ccc(Sc2c3ccccc3nc3ccccc23)cc1`
> 100 µM (inactive)

GET /values?readout=GI50&item= CC1=C(O)/C(=C/C(C)CCC/C(C)=C/C=C/C(C)CCCc2ccoc2)OC1=O (stereo unspecified)
34.4 µM (inactive)

GET /values?readout=GI50&item= `CCOC(=O)c1c(NC(=O)c2ccc(Br)cc2)sc2c1CCCC2`
> 100 µM (inactive)

GET /values?readout=GI50&item= `C(/C=N/N=C1NCCCN1)=N\N=C1NCCCN1`
> 100 µM (inactive)

GET /values?readout=GI50&item= `COc1cc(NS(C)(=O)=O)ccc1NCc1c[nH]c2ccc3ncccc3c12`
25 µM (inactive)

GET /values?readout=GI50&item= CC1C[C@H](C)CC(C(O)CC2CC(=O)N(Cc3ccccc3)C(=O)C2)C1O (stereo partly specified)
> 100 µM (inactive)

GET /values?readout=GI50&item= NC(=O)C12CCC1C1CCCCC12N1CCOCC1 (stereo unspecified)
> 100 µM (inactive)

====

System: KM-20L2
method.notes: NCI tumour cell line growth inhibition, 48 h
Activity calls are given as the source filed them. No stated cut-off is given here; in the data, active = GI50 up to about 1.1 µM and inactive = higher.
Overview of reported GI50 across a group of molecules:

> print(dat)
                                   molecule  parameter      recorded.result
1  O=Cc1ccccc1COC(=O)c1cc(C(=O)OCc2ccccc2C=O)c(C(=O)OCc2ccccc2C=O)cc1C(=O)OCc1ccccc1C=O       GI50  > 100 µM (inactive)

Could you now look at the following molecule, please?
GET /values?readout=GI50&item= `O=[N+]([O-])c1ccc(Sc2c3ccccc3nc3ccccc23)cc1`
> 100 µM (inactive)

====

Tested on: RXF 393
method.notes: NCI tumour cell line growth inhibition, 48 h
The source made the active and inactive calls. Cut-off read from the data, not from the text of the source: active = GI50 up to about 1.1 µM and inactive = higher.
Overview of reported GI50 across a group of molecules:

molecule	study.target	GI50
Cc1cc2ccc(N)nc2nc1O	RXF 393	> 100 µM (inactive)
O/N=C1/C(=C/c2ccc3c(c2)OCO3)CCCC1C(NO)c1ccc2c(c1)OCO2 (stereo unspecified)	RXF 393	23.6 µM (inactive)
Oc1c(Cl)c(Cl)c(O)c(-c2cnc(-c3ncc(-c4c(O)c(Cl)c(Cl)c(O)c4Cl)s3)s2)c1Cl	RXF 393	18.9 µM (inactive)

GET /values?readout=GI50&item= `Clc1cc(Cl)c2n[se]nc2c1`
> 100 µM (inactive)

GET /values?readout=GI50&item= `CCCCc1ccc(Nc2nc(O)c3ncn(COCCO)c3n2)cc1`
> 100 µM (inactive)

GET /values?readout=GI50&item= `Cc1nc2c(o1)/C(=N\c1ccccc1)c1ccccc1C2=O`
20.2 µM (inactive)

GET /values?readout=GI50&item= `O=C1c2ccccc2-n2c1nc1ccc(Cl)cc1c2=O`
3.48 µM (inactive)

====

System: OVCAR-4
method.notes: NCI tumour cell line growth inhibition, 48 h
Calls of active or inactive are those of the source. No stated cut-off is given here; in the data, active = GI50 up to about 1.1 µM and inactive = higher.
parameter: GI50

A selection of reference data follows.
> print(dat)
                                   compound      recorded.result
1  CCN(CC)[C@@H]1c2cc3c(cc2C(c2cc(OC)c(O)c(OC)c2)C2C(=O)CO[C@@H]21)OCO3 (stereo not given in full)  > 100 µM (inactive)
2  CCCCCCCCOCC(COC(=O)CCCCCCC)OC(=O)CCCCCCC (stereo not given)  > 100 µM (inactive)
3  CCNc1nc2c(ncn2C2CC(O)C(COP(=O)(O)O)O2)c(=O)[nH]1 (stereo not given)  > 100 µM (inactive)
4  O=[N+]([O-])c1ccc(NN/N=N/c2ccc(-c3nc4ccccc4s3)cc2)c([N+](=O)[O-])c1   24.6 µM (inactive)

Could you now look at the following compound, please?
GET /values?readout=GI50&item= `Clc1nc(Cl)c(Cl)c(Cl)n1`
23 µM (inactive)
